# Tested on: Penicillium chrysogenum
# procedureText: Antifungal activity against Penicillium notatum sp. at 1000 ug after 24 hrs by paper disc technique relative to control
# Type: functional
observationType: Activity (%)
Output spec: scalar in %, unitless text.

Use these answered entries as a reference point.
Input: # return recorded Activity for entry `OC(Cn1cncn1)(Cn1cncn1)c1ccc(F)cc1F`
Output: 90

Input: # return recorded Activity for entry `Cc1ccc2nc3c(cc2c1)C=Nn1c(nnc1-c1ccc([N+](=O)[O-])cc1)N3`
Output: 70

Input: # return recorded Activity for entry `C1=Nn2c(nnc2-c2ccccc2)Nc2nc3ccccc3cc21`
Output: 90

Input: # return recorded Activity for entry `O=[N+]([O-])c1ccc(-c2nnc3n2N=Cc2cc4ccccc4nc2N3)cc1`
Output: 86.66

Proceed to the following item.
Input: # return recorded Activity for entry `Cc1ccc2nc3c(cc2c1)C=Nn1c(nnc1-c1ccccc1Cl)N3`
Output: 70

----------
# System: Aspergillus flavus
# procedureText: Antifungal activity against Aspergillus flavus at 500 ug after 24 hrs by paper disc technique
# Format: functional
# measurementContext: read-out: IZ
Attribute: zone of inhibition at 500 µg/disc

Input: # return recorded zone of inhibition at 500 µg/disc for entry `Cc1ccc2nc3c(cc2c1)C=Nn1c(nnc1-c1ccc([N+](=O)[O-])cc1)N3`
Output: 43 mm

Others:
Input: # return recorded zone of inhibition at 500 µg/disc for entry `Cc1ccc2nc3c(cc2c1)C=Nn1c(nnc1-c1ccccc1Cl)N3`
Output: 42 mm

Input: # return recorded zone of inhibition at 500 µg/disc for entry `O=[N+]([O-])c1ccc(-c2nnc3n2N=Cc2cc4ccccc4nc2N3)cc1`
Output: 36 mm

Input: # return recorded zone of inhibition at 500 µg/disc for entry `C1=Nn2c(nnc2-c2ccccc2)Nc2nc3ccccc3cc21`
Output: 32 mm

Input: # return recorded zone of inhibition at 500 µg/disc for entry `OC(Cn1cncn1)(Cn1cncn1)c1ccc(F)cc1F`
Output: 35 mm
